Recorded values, source ChEMBL document CHEMBL1138132.

- PROTOCOL SUMMARY: Solubility in pH 7.4 buffer
- Assay type: physicochemical
PROPERTY: solubility (µM)
Your answer is read as µM, so omit the unit and give the number.

So what does the record say about solubility for C[C@@H](OC[C@@]1(c2ccc(F)cc2)CN(C)C(=O)N1)c1cc(C(F)(F)F)cc(C(F)(F)F)c1 ?
3

* * *

- System: Meriones unguiculatus
- PROTOCOL SUMMARY: Inhibition of Mongolian gerbil foot-tapping at 4 hr time point at 1 mg/kg, po
- Type: functional
Provide the reported inhibition in vivo at 1 mg/kg of each item.
Unit % implied. Number only.

// fetch Meriones unguiculatus inhibition in vivo at 1 mg/kg for O=C1NC(COCc2cc(C(F)(F)F)cc(C(F)(F)F)c2)(c2ccc(F)cc2)CN1C1CCOCC1 (stereo not given)
0

Request body: readout inhibition in vivo at 1 mg/kg, system Meriones unguiculatus, query CCN1C[C@@](CO[C@H](C)c2cc(C(F)(F)F)cc(C(F)(F)F)c2)(c2ccc(F)cc2)NC1=O . Return the value.
0

Give the reported inhibition in vivo at 1 mg/kg for C[C@@H](OC[C@@]1(c2ccccc2)CN(C)C(=O)N1)c1cc(C(F)(F)F)cc(C(F)(F)F)c1 (system: Meriones unguiculatus).
62

inhibition in vivo at 1 mg/kg of CCN1C[C@@](CO[C@H](C)c2cc(C(F)(F)F)cc(C(F)(F)F)c2)(c2ccccc2)NC1=O on Meriones unguiculatus?
46

Look up inhibition in vivo at 1 mg/kg with Meriones unguiculatus for this compound: C[C@@H](OC[C@@]1(c2ccccc2)CNC(=O)N1)c1cc(C(F)(F)F)cc(C(F)(F)F)c1
57
